Reported Metric: melting point

Challenge: Consider the compound shown here: CN(C)C(=O)n1nc(C(C)(C)C)cc1S(C)=O (configuration not stated) What is its recorded melting point?
Response given: 95 to 96 °C

Challenge: Consider the compound shown here: O=C(O)Cn1c(=O)c(=O)[nH]c2ccc(Cl)cc21 What is its recorded melting point?
Response given: > 285 °C

Challenge: Consider the compound shown here: O=C(O)CN1C(=O)C(=Cc2ccc(Cl)cc2Cl)SC1=S What is its recorded melting point?
Response given: > 237 °C

Challenge: Consider the compound shown here: CC1(C)CCc2cc(O)c(O)cc2C1=O What is its recorded melting point?
Response given: 163 to 165 °C

Challenge: Consider the compound shown here: CC(C)S(=O)(=O)c1ccc(Oc2ccc(Cl)c(Cl)c2)nc1 What is its recorded melting point?
Response given: 91 to 92 °C

---

# reported melting point; entries follow

Examples with answers:
[
  {
    "Compound": "COc1ccc(N2CCN(c3c(C)c(C)c4c(c3C)C(Nc3ccccc3)C(C)(C)O4)CC2)cc1 (stereo not given)",
    "Reported Metric": "melting point",
    "Endpoint Result": "90 to 94 °C"
  },
  {
    "Compound": "CCCCCCC(CCC(=O)OO)CC(=O)OO (stereo not given)",
    "Reported Metric": "melting point",
    "Endpoint Result": "51.5 to 52.5 °C"
  },
  {
    "Compound": "Cc1cc(C)n(C(c2ccccc2)(c2ccccc2)c2ccccc2Cl)n1",
    "Reported Metric": "melting point",
    "Endpoint Result": "195 to 197 °C"
  },
  {
    "Compound": "NC(=O)c1ccc(-c2ccc3nnn(Cc4c(F)cc5ncccc5c4F)c3n2)cc1Cl",
    "Reported Metric": "melting point",
    "Endpoint Result": "216 to 219 °C"
  }
]

Challenge: Consider the compound shown here: COc1ccc2c(c1)CCC(n1cc[nH]c1=S)C2 (stereo not given) What is its recorded melting point?
Response given: 226 to 227 °C

---

# reported melting point; entries follow

Examples with answers:
[
  {
    "Compound": "CC1NC(C#N)=C(C#N)NC1=O (stereo unspecified)",
    "Reported Metric": "melting point",
    "Endpoint Result": "243 to 245 °C"
  },
  {
    "Compound": "COc1ccccc1NC(=O)Nc1ccc(N2CCN(C(=O)Nc3ccc(OCCO)cc3Cl)CC2)c(Cl)c1",
    "Reported Metric": "melting point",
    "Endpoint Result": "173 to 175 °C"
  },
  {
    "Compound": "Nc1cccc2cncc(Br)c12",
    "Reported Metric": "melting point",
    "Endpoint Result": "155 °C"
  },
  {
    "Compound": "CCc1nc2c(cnn2CC)c(NC2CCOCC2)c1CNC(=O)c1cccc(C(=O)NCc2ccc(C)c(Br)c2)c1",
    "Reported Metric": "melting point",
    "Endpoint Result": "175 to 176 °C"
  },
  {
    "Compound": "Cc1ccc(C)n1C1=CC2=C(CC1)CCc1[nH]c(=O)c(=O)[nH]c12",
    "Reported Metric": "melting point",
    "Endpoint Result": "> 265 °C"
  }
]

# ---- query compound ----
Challenge: Consider the compound shown here: COc1ccc(S(=O)(=O)c2ccc3cc(Br)ccc3c2)cc1 What is its recorded melting point?
Response given: 180 to 181 °C

---

# reported melting point; entries follow

Examples with answers:
[
  {
    "Molecule": "CC(C)(C)OC(=O)Cn1cccc(NC(=O)OCc2ccccc2)c1=O",
    "Endpoint Result": "88 to 90 °C"
  },
  {
    "Molecule": "Cc1ccc(Cl)cc1N1C(=O)CN(c2ccccc2)C1=S",
    "Endpoint Result": "168 to 170 °C"
  },
  {
    "Molecule": "CC(=O)C1C(=O)c2cccc(N)c2C1=O (stereo unspecified)",
    "Endpoint Result": "126 to 128 °C"
  }
]

Challenge: Consider the molecule shown here: CCOC(=O)c1cc(C#N)cc(C(F)(F)F)n1 What is its recorded melting point?
Response given: 71.5 °C

Challenge: Consider the molecule shown here: O=C1Nc2cc(Cl)ccc2C(=O)C1c1coc2ccccc12 (stereo unspecified) What is its recorded melting point?
Response given: 290 °C

Challenge: Consider the molecule shown here: FC(F)(F)c1ccc(-n2nnnc2Nc2ccc(C(F)(F)F)cc2Cl)cc1 What is its recorded melting point?
Response given: 116 °C

---

# reported melting point; entries follow

Examples with answers:
[
  {
    "Compound": "CC(=O)O[C@@H](c1cnnn1-c1ccccc1)[C@@H](CCN1CCC(N2CCCCC2=O)CC1)c1ccc(Cl)c(Cl)c1 (racemic)",
    "melting point": "65 to 67 °C"
  },
  {
    "Compound": "CS(=O)(=O)c1ccc(-c2oc3ccccc3c(=O)c2-c2cccc(F)c2)cc1",
    "melting point": "225 °C"
  },
  {
    "Compound": "O=c1[nH]nc2ccc(NCCCN3CCC(OC(c4ccccc4)c4ccccc4)CC3)nn12",
    "melting point": "156 to 170 °C"
  },
  {
    "Compound": "Nc1n[nH]c(Nc2ccccc2)n1",
    "melting point": "158 to 159 °C"
  }
]

Challenge: Consider the compound shown here: COC(=O)C1C(=O)CC2CCC1N2C (mixture of isomers) What is its recorded melting point?
Response given: 104 to 107 °C

---

Reported Metric: melting point

Examples with answers:
[
  {
    "Smiles Record": "Nc1ccc2oc3c(OC(F)F)ccc(C(=O)Nc4c(Cl)cncc4Cl)c3c2c1",
    "Endpoint Result": "87 to 89 °C"
  },
  {
    "Smiles Record": "CCCC(=O)c1cnc2c(C(N)=O)cccc2c1Nc1ccccc1C",
    "Endpoint Result": "185 to 187 °C"
  }
]

Challenge: Consider the molecule shown here: COC(=O)c1cc(OCCCOc2ccccc2-c2ccccc2)cc(OCCCOc2ccccc2-c2ccccc2)c1 What is its recorded melting point?
Response given: 77 to 79 °C

Challenge: Consider the molecule shown here: COc1cc2c(c3c1OC(C)(C)C3)C(c1cccc(-c3ccco3)c1)=NC(C)(C)C2 What is its recorded melting point?
Response given: 126 to 128 °C

---

# reported melting point; entries follow

Examples with answers:
[
  {
    "Compound": "CC(Oc1ccc(C#N)cc1)c1ccnc2ncnn12 (centres undefined)",
    "Endpoint Result": "163 to 164 °C"
  },
  {
    "Compound": "COC(=O)CCCCOc1cc2c(c(Cl)c1Cl)C(=O)C(C)(C1CCCC1)C2 (centres undefined)",
    "Endpoint Result": "83 to 86 °C"
  },
  {
    "Compound": "COC(=O)c1nc(-c2ccc(Cl)cc2)c(F)c(N)c1I",
    "Endpoint Result": "114 to 115 °C"
  },
  {
    "Compound": "COCCN1CCc2ccc(Nc3ncc(Cl)c(N[C@@H]4CCC[C@H]4NS(C)(=O)=O)n3)cc2CC1 (relative stereo)",
    "Endpoint Result": "74 °C"
  },
  {
    "Compound": "O=C(O)CSCC(O)CN1CCCCC1 (centres undefined)",
    "Endpoint Result": "152 °C"
  }
]

# ---- query compound ----
Challenge: Consider the compound shown here: CC1(c2ccc([N+](=O)[O-])cc2)OCCO1 What is its recorded melting point?
Response given: 69 to 71 °C

---

Reported Metric: melting point

Examples with answers:
[
  {
    "Compound": "CCN(CC)CCOC(=O)c1ccc(/C=C(\\C)c2ccc3c(c2)C(C)(C)CCC3(C)C)cc1",
    "melting point": "65 to 66 °C"
  },
  {
    "Compound": "Fc1cccc(F)c1-c1nn(-c2ccccc2C(F)(F)F)c(=S)o1",
    "melting point": "128 to 130 °C"
  },
  {
    "Compound": "O=c1oc2ccccc2c(O)c1C1CC(c2ccc(Oc3ccc(-c4ccccc4)cc3)cc2)Cc2ccccc21 (stereo unspecified)",
    "melting point": "124 to 127 °C"
  },
  {
    "Compound": "COc1ccc(/C(=C\\C=C\\C(=O)Oc2ccc([N+](=O)[O-])cc2)C2CC2)cc1",
    "melting point": "111 to 112 °C"
  },
  {
    "Compound": "CCc1cc2c(Nc3nnc(C)s3)ncnc2s1",
    "melting point": "277 to 280 °C"
  }
]

Challenge: Consider the compound shown here: Cc1c(O)ccc2c(O)c(C(=O)Nc3cccc(F)c3)c(=O)oc12 What is its recorded melting point?
Response given: 287 to 289 °C

Challenge: Consider the compound shown here: S=C1CC2Cc3ccc(Cl)cc3C2N1 (stereo unspecified) What is its recorded melting point?
Response given: 225 to 227 °C

Challenge: Consider the compound shown here: O=c1oc(-c2ccc(OCc3ccc4ccccc4c3)cc2)cc(O)c1SCCc1ccccc1 What is its recorded melting point?
Response given: 152 to 154 °C

Challenge: Consider the compound shown here: CCOC(=O)c1cn(-c2ccc(Cl)cn2)cn1 What is its recorded melting point?
Response given: 163 to 164 °C

Challenge: Consider the compound shown here: NC(=O)c1c(-c2cccc(F)c2)c(Cl)n2c1CNCC2 What is its recorded melting point?
Response given: 226 to 228 °C

Challenge: Consider the compound shown here: O=Cc1ccc(OC[C@H]2CCCN2c2ncnc3[nH]cnc23)c2ccccc12 What is its recorded melting point?
Response given: 167 to 168 °C

Challenge: Consider the compound shown here: Cc1oc(-c2ccc(C(F)(F)F)cc2)nc1CCOc1ccc(CN(O)C(N)=O)cc1F What is its recorded melting point?
Response given: 144 to 146 °C

Challenge: Consider the compound shown here: COC(=O)C(CSSc1ccccc1C(=O)Nc1ccc(S(N)(=O)=O)cc1)NC(C)=O (stereo unspecified) What is its recorded melting point?
Response given: 138 to 140 °C

Challenge: Consider the compound shown here: Cc1ccc(S(=O)(=O)N2[C@H](CCCc3nnn(C)n3)CC[C@@H]2c2ccc(F)cc2)cc1 (racemic) What is its recorded melting point?
Response given: 107 °C

Challenge: Consider the compound shown here: CC(=O)OC1(c2nc3ccccc3s2)C=CC(=O)C=C1 What is its recorded melting point?
Response given: 101 °C

Challenge: Consider the compound shown here: CCOC(=O)CC1CCc2cncn2C1c1ccc(C#N)cc1 (stereo unspecified) What is its recorded melting point?
Response given: 126 to 127 °C

Challenge: Consider the compound shown here: COC(=O)c1cc(NC(=O)C(N)c2ccc3c(c2)C(C)(C)CCC3(C)C)cn1C (stereo unspecified) What is its recorded melting point?
Response given: 122 to 124 °C

Challenge: Consider the compound shown here: COc1cnc(OC)n2c(N)nnc12 What is its recorded melting point?
Response given: 232 to 235 °C

Challenge: Consider the compound shown here: CCOC(=O)CN1C(=O)C(C(C)C)N(C(C)=O)C=C1c1ccccc1 (racemic) What is its recorded melting point?
Response given: 96 to 98 °C

Challenge: Consider the compound shown here: Cc1c(S(C)(=O)=O)ccc(C(=O)O)c1Cl What is its recorded melting point?
Response given: 230 to 231 °C

Challenge: Consider the compound shown here: COc1cccc2sc(NC(=O)COC(C)=O)nc12 What is its recorded melting point?
Response given: 161 to 162 °C

Challenge: Consider the compound shown here: CC(=O)NCCc1cn(S(=O)(=O)c2ccc(C)cc2)c2ccc(O)cc12 What is its recorded melting point?
Response given: 173 to 174 °C

Challenge: Consider the compound shown here: CC(=O)OC1CSC(Oc2cccc3cc(C(C)=O)oc23)C(OC(C)=O)C1OC(C)=O (stereo unspecified) What is its recorded melting point?
Response given: 208 to 209 °C

Challenge: Consider the compound shown here: Cc1cc(N)c(C)nc1OC(F)F What is its recorded melting point?
Response given: 38.4 to 39.4 °C

Challenge: Consider the compound shown here: NCC1Cc2c(C(F)(F)F)ccc(Cl)c2O1 (stereo unspecified) What is its recorded melting point?
Response given: > 250 °C

Challenge: Consider the compound shown here: COc1ccccc1-n1cnc2c(C(N)=O)nc(Nc3cccc(O)c3)nc21 What is its recorded melting point?
Response given: 155 to 157 °C

Challenge: Consider the compound shown here: Cn1ccnc1Sc1ccc(Nc2c(C#N)cnc3cc(F)ccc23)cc1Cl What is its recorded melting point?
Response given: 268 to 272 °C

Challenge: Consider the compound shown here: CCOC(C)n1cnc(C(N)=O)n1 (stereo unspecified) What is its recorded melting point?
Response given: 163 to 166 °C

Challenge: Consider the compound shown here: O=C1c2ccccc2C(=O)N1CCON1CCNC1=Nc1c(Cl)cccc1Cl What is its recorded melting point?
Response given: 129 to 130 °C
